pest or weed control at 125 g/ha for assorted compounds
system: Alopecurus myosuroides (ALOMY); test: Test Example 1 post-emergence herbicidal activity; assay type: in vivo; conditions: 360 h, rate 125 g/ha, evaluated 15 days later, read-out: Post-emergence activity ALOMY (100=total damage to plant; 0=no damage to plant)
assay.metric: pest or weed control at 125 g/ha (%)

CCc1cc(C)cc(CC)c1C1=C(O)[C@@H]2[C@@H]3O[C@@H](C[C@H]3c3ccc(SC)cc3)[C@@H]2C1=O [Example T162] ... 90
CCOC[C@]12CC[C@H](O1)[C@@H]1C(=O)C(c3c(CC)cc(C)cc3CC)=C(O)[C@@H]12 [Example T18] ... 100
Cc1cc(C)c(C2=C(O)[C@H]3[C@@H](C2=O)[C@]2(C)CC[C@@]3(C)O2)c(C)c1 [Example T6] ... 80
CCc1cc(C)cc(CC)c1C1=C(OC(=O)CCCCCCC(=O)OC)[C@H]2[C@@H](C1=O)[C@@H]1CC[C@H]2O1 [Example P16] ... 100
Cc1cc(C)c(C2=C(O)[C@@H]3[C@@H]4O[C@@H](C[C@H]4c4ccc(C(F)(F)F)cn4)[C@@H]3C2=O)c(C)c1 (racemic) [Example T200] ... 70
Cc1cc(C)c(C2=C(O)[C@@H]3[C@@H]4O[C@@H](C[C@H]4c4cccc(C#N)c4)[C@@H]3C2=O)c(C)c1 [Example T89] ... 80
CCc1cc(C)cc(CC)c1C1=C(O)[C@@H]2[C@@H]3O[C@@H](C[C@H]3c3ccc(F)c(F)c3)[C@@H]2C1=O (racemic) [Example T178] ... 100
C#CC1=C[C@@H]2O[C@H]1[C@H]1C(O)=C(c3c(CC)cc(C)cc3CC)C(=O)[C@H]12 [Example T12] ... 70
CCc1ccc(Br)cc1C1=C(O)[C@H]2[C@@H](C1=O)[C@@H]1CC[C@H]2O1 [Example T134] ... 20
CCc1cc(C)cc(CC)c1C1=C(O)[C@@H]2[C@@H]3O[C@@H](C[C@H]3c3cccc(C(C)=O)c3)[C@@H]2C1=O (racemic) [Example T174] ... 70
CCc1cc(C)cc(CC)c1C1=C(O)[C@@H]2[C@@H]3O[C@@H](C[C@H]3c3cc(F)cc(F)c3)[C@@H]2C1=O [Example T173] ... 100
CCc1cc(C)cc(CC)c1C1=C(O)[C@@H]2[C@@H]3O[C@@H](C[C@H]3c3ccccc3[N+](=O)[O-])[C@@H]2C1=O [Example T177] ... 80
Cc1cc(C)c(C2=C(O)[C@@H]3[C@@H]4O[C@@H](C[C@H]4c4ccc(C(F)(F)F)cc4)[C@@H]3C2=O)c(C)c1 [Example T92] ... 100
CCc1cc(C)cc(CC)c1C1=C(O)[C@@H]2[C@@H]3O[C@@H](C[C@H]3c3ccc(F)cc3)[C@@H]2C1=O [Example T185] ... 90
Cc1cc(C)c(C2=C(O)[C@@H]3[C@@H]4O[C@@H](C[C@H]4c4ccc([N+](=O)[O-])cc4)[C@@H]3C2=O)c(C)c1 [Example T90] ... 90
CCc1cc(C)cc(CC)c1C1=C(O)[C@@H]2[C@@H]3O[C@@H](C[C@H]3c3ccc(Cl)c(Cl)c3)[C@@H]2C1=O [Example T150] ... 60
CCOC(=O)OC1=C(c2c(CC)cc(C)cc2CC)C(=O)[C@@H]2[C@H]1[C@H]1CC[C@@H]2O1 (racemic) [Example P18] ... 90
CC[C@]12C=C[C@H](O1)[C@@H]1C(=O)C(c3c(C)cc(C)cc3C)=C(O)[C@@H]12 [Example T40] ... 40
Cc1cc(C)c(C2=C(O)[C@@H]3[C@@H]4O[C@@H](C[C@H]4c4ccc(OC(F)(F)F)cc4)[C@@H]3C2=O)c(C)c1 [Example T91] ... 90

###

test system: Alopecurus myosuroides (ALOMY); assay: Test Example 1 post-emergence herbicidal activity; type: in vivo; conditions: 360 h, rate 125 g/ha, evaluated 15 days later, read-out: Post-emergence activity ALOMY (100=total damage to plant; 0=no damage to plant)
pest or weed control at 125 g/ha for assorted compounds
assay.metric: pest or weed control at 125 g/ha (%)

CCc1cc(C)cc(C)c1C1=C(O)[C@H]2[C@@H](C1=O)[C@@H]1CC[C@H]2O1 ... 100
CCc1cc(C)cc(CC)c1C1=C(O)[C@H]2[C@@H](C1=O)[C@]1(C)CC[C@@]2(C)O1 ... 100
Cc1cc(C)c(C2=C(O)C3C(C2=O)[C@@H]2CC(CO)[C@@]3(C)O2)c(C)c1 (stereo partly drawn) ... 60

###

Tested on: Alopecurus myosuroides (ALOMY)
Assay: Test Example 1 post-emergence herbicidal activity
Type: in vivo
Conditions: 360 h, rate 125 g/ha, evaluated 15 days later, read-out: Post-emergence activity ALOMY (100=total damage to plant; 0=no damage to plant)
Description: Monocotyledonous and dicotyledonous test plants were sown in standard soil in pots. […] The test plants were then grown in a greenhouse under optimum conditions until, 15 days later for post-emergence and 20 days for pre-emergence, the test was evaluated (100=total damage to plant; 0=no damage to plant). […]
pest or weed control at 125 g/ha for assorted compounds
assay.metric: pest or weed control at 125 g/ha

CCC(=O)OC[C@]12C=C[C@H](O1)[C@@H]1C(=O)C(c3c(C)cc(C)cc3C)=C(O)[C@@H]12 ... 50%
CSC[C@]12C=C[C@H](O1)[C@@H]1C(=O)C(c3c(C)cc(C)cc3C)=C(O)[C@@H]12 (racemic) ... 40%
CCC(=O)OC1=C(c2c(CC)cc(C)cc2CC)C(=O)[C@@H]2[C@H]1[C@H]1CC[C@@H]2O1 (racemic) ... 100%
Cc1cc(C)c(C2=C(O)[C@@H]3[C@@H]4O[C@@H](C[C@H]4/C=C/c4ccccc4)[C@@H]3C2=O)c(C)c1 ... 70%

###

system: Echinochloa crus-galli (ECHCG); assay: Test Example 1 pre-emergence herbicidal activity; assay type: in vivo; settings: Echinochloa crus-galli, 480 h, rate 250 g/ha, evaluated 20 days later, read-out: Pre-emergence activity ECHCG (100=total damage to plant; 0=no damage to plant)
assay.metric: pest or weed control at 250 g/ha (%)

CCc1cc(CC)c(C2=C(O)[C@H]3[C@@H](C2=O)[C@@H]2CC[C@H]3O2)c(CC)c1 ... 100
CCc1cc(C)cc(CC)c1C1=C(OC(=O)C(C)C)[C@H]2[C@@H](C1=O)[C@@H]1CC[C@H]2O1 ... 100
CCc1cc(C)cc(CC)c1C1=C(OC(=O)C(C)(C)C)[C@H]2[C@@H](C1=O)[C@@H]1CC[C@H]2O1 (racemic) ... 100
CC[C@]12C=C[C@H](O1)[C@@H]1C(=O)C(c3c(C)cc(C)cc3C)=C(O)[C@@H]12 ... 40
Cc1cc(C)c(C2=C(O)[C@H]3[C@@H](C2=O)[C@@H]2C=C[C@@]3(C(C)O)O2)c(C)c1 (mixture of isomers) ... 30
CC1=C2CCC(C)C[C@@]23O[C@@H]1C1C(=O)C(c2c(C)cc(C)cc2C)=C(O)C13 (stereo partly shown) ... 30
CCc1cc(C)cc(CC)c1C1=C(O)[C@@H]2[C@@H]3O[C@@H](C[C@H]3c3ccccc3F)[C@@H]2C1=O (racemic) ... 80
COC[C@H]1C[C@@H]2O[C@H]1[C@H]1C(O)=C(c3c(C)cc(C)cc3C)C(=O)[C@H]12 ... 100
CCc1cc(C)cc(CC)c1C1=C(O)[C@H]2[C@@H](C1=O)[C@@H]1C=C[C@H]2O1 ... 100
CCc1cc(C)cc(CC)c1C1=C(O)[C@@H]2[C@@H]3O[C@@H](C[C@H]3c3ccc([N+](=O)[O-])cc3Cl)[C@@H]2C1=O ... 50

###

test system: Lolium perenne (LOLPE); experiment: Test Example 1 pre-emergence herbicidal activity; assay type: in vivo; conditions: Lolium perenne, 480 h, rate 250 g/ha, evaluated 20 days later, read-out: Pre-emergence activity LOLPE (100=total damage to plant; 0=no damage to plant)
assay.metric: pest or weed control at 250 g/ha

Cc1cc(C)c(C2=C(O)[C@H]3[C@@H](C2=O)[C@@H]2CC[C@@]3(CO)O2)c(C)c1 ... 100%
CCc1cc(C)cc(CC)c1C1=C(OC(=O)CC(C)C)[C@H]2[C@@H](C1=O)[C@@H]1CC[C@H]2O1 ... 100%
Cc1cc(C)c(C2=C(O)C3C(C2=O)[C@@H]2CC(CO)[C@@]3(C)O2)c(C)c1 (stereo partly drawn) ... 60%
CCC(=O)OC[C@]12C=C[C@H](O1)[C@@H]1C(=O)C(c3c(C)cc(C)cc3C)=C(O)[C@@H]12 ... 30%
Cc1cc(C)c(C2=C(O)[C@@H]3[C@@H]4O[C@@H](C[C@H]4c4ccccc4)[C@@H]3C2=O)c(C)c1 ... 100%
Cc1cc(C)c(C2=C(OC(=O)OC(C)C)[C@H]3[C@@H](C2=O)[C@@H]2CC[C@H]3O2)c(C)c1 (racemic) ... 100%
CCC1=NOC2C1[C@@H]1O[C@H]2[C@H]2C(O)=C(c3c(CC)cc(C)cc3CC)C(=O)[C@H]21 (stereo partly drawn) ... 40%
CCc1cc(C)cc(CC)c1C1=C(O)[C@H]2[C@@H](C1=O)[C@@H]1CC[C@@]2(COCC#N)O1 ... 70%
Cc1cc(C)c(C2=C(O)[C@H]3[C@@H](C2=O)[C@@H]2C=C[C@@]3(C(C)O)O2)c(C)c1 (mixture of isomers) ... 30%
CCc1cc(C)cc(CC)c1C1=C(O)[C@@H]2[C@@H]3O[C@@H](C[C@H]3c3ccc(F)c(Cl)c3)[C@@H]2C1=O ... 80%
Cc1cc(C)c(C2=C(O)[C@@H]3[C@@H]4O[C@@H](C[C@H]4c4cccc(C(F)(F)F)c4)[C@@H]3C2=O)c(C)c1 ... 70%
COc1ccc([C@@H]2C[C@@H]3O[C@H]2[C@H]2C(O)=C(c4c(C)cc(C)cc4C)C(=O)[C@H]23)cc1 (racemic) ... 100%

This collection of values is drawn from patent US8754242B2.
